Where do the numbers come from? From patent EP1431280A1.

- experimental target: recombinant human estrone sulfatase (Homo sapiens)
- protocol text: Test for inhibition of estrone sulfatase (steroid sulfatase)
- stated conditions: 4-methylumbelliferyl sulfate 0.3 mmol/L, phosphate buffer pH 7.5, 37 °C, 1 hour, fluorescence of 4-methylumbelliferone; read-out: IC50, inhibitory activity against steroid sulfatase
readout type: IC50 (nM)
Supply the numeric figure in nM, leaving out any unit text.

The examples below pair each entry with its known result.
* CCCCCCCCCNC(=O)C(C#N)=Cc1ccc(OS(N)(=O)=O)cc1 | 14
* CCCCCCCCCNC(=O)C#Cc1ccc(OS(N)(=O)=O)cc1 | 99
* CCCCCCCCCNC(=O)C(C#N)=C(CF)c1ccc(OS(N)(=O)=O)cc1 | 35

Prompt line: So what's the measured IC50 for this one? CCCCCCCCCNC(=O)CC(=O)c1ccc(OS(N)(=O)=O)cc1
Response line: 31

Prompt line: So what's the measured IC50 for this one? CCCCCCCNC(=O)C(C#N)=Cc1ccc(OS(N)(=O)=O)cc1
Response line: 12

Prompt line: So what's the measured IC50 for this one? CCCCCCCCCNC(=O)C(C#N)=C(CC)c1ccc(OS(N)(=O)=O)cc1
Response line: 17

Prompt line: So what's the measured IC50 for this one? CCCCCCCCCNC(=O)C=C(C#N)c1ccc(OS(N)(=O)=O)cc1
Response line: 44

* * *

- experimental target: recombinant human estrone sulfatase (Homo sapiens, UniProt P08842)
- Sequence (P08842 22-583): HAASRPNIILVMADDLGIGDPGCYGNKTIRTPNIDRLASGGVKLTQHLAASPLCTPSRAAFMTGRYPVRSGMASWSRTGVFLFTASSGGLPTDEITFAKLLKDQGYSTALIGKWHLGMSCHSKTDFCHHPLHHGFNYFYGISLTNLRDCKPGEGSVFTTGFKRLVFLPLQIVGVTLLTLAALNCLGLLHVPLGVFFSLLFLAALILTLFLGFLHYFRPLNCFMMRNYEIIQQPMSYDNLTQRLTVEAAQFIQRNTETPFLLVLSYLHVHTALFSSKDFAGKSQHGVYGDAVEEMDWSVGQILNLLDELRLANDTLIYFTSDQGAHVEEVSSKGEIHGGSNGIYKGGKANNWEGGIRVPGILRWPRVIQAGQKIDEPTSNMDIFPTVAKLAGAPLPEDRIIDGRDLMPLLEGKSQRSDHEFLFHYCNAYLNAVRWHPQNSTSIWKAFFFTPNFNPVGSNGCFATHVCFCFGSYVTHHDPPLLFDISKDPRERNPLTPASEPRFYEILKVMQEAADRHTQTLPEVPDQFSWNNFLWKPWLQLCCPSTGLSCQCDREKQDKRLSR
- protocol text: Test for inhibition of estrone sulfatase (steroid sulfatase)
- stated conditions: 4-methylumbelliferyl sulfate 0.3 mmol/L, phosphate buffer pH 7.5, 37 °C, 1 hour, fluorescence of 4-methylumbelliferone; read-out: IC50, inhibitory activity against steroid sulfatase
readout type: IC50

The examples below pair each entry with its known result.
* CCCCCCCCCNC(=O)C(C#N)=C(O)c1ccc(OS(N)(=O)=O)cc1 [Compound 22] | < 12 nM
* CCCCCCCNC(=O)C(C#N)=C(C)c1ccc(OS(N)(=O)=O)cc1 [Compound 16] | < 12 nM

Prompt line: So what's the measured IC50 for this one? CCCCCCCCNC(=O)/C(C#N)=C(\C)c1ccc(OS(N)(=O)=O)cc1 [Compound 15]
Response line: < 12 nM
